The measurements presented in this section are drawn from paper PMC10362580.

Test system: patient-derived breast cancer organoids (Tumor Organoid)
ASSAY_EXPLANATION: PDO drug sensitivity and resistance testing (CellTiter-Glo), breast tumor organoids
Type: cell-based, human
RUN_CONDITIONS: Homo sapiens, 504 h, Breast Cancer Sample 2, Tumor Organoid, day 21, CTG
For each record, write down the corresponding pIC50.
Field pIC50 (float): negative decimal logarithm of the concentration in molar.

Enquiry: Indicate the recorded pIC50 value for this compound: CC(=O)O[C@H]1C(=O)[C@@]2(C)[C@H]([C@H](OC(=O)c3ccccc3)[C@]3(O)C[C@H](OC(=O)[C@H](O)[C@@H](NC(=O)c4ccccc4)c4ccccc4)C(C)=C1C3(C)C)[C@]1(OC(C)=O)CO[C@@H]1C[C@@H]2O
Return: 3.97

Enquiry: Please supply the value of reported pIC50 for the item COc1cccc2c1C(=O)c1c(O)c3c(c(O)c1C2=O)C[C@@](O)(C(=O)CO)C[C@@H]3O[C@H]1C[C@H](N)[C@H](O)[C@H](C)O1
Return: 4.01

====

Give measured IC50 for each item. Keep answers brief.
Tested on: Normal Organoid from normal adjacent tissue of ovarian cancer patients
ASSAY_EXPLANATION: PDO drug sensitivity and resistance testing (CellTiter-Glo), ovarian normal adjacent tissue organoids
Type: cell-based
RUN_CONDITIONS: Homo sapiens, 168 h, Ovarian Cancer Sample 3, Normal Organoid, day 7, CTG
Numeric answer only, unit mM assumed.

Enquiry: State measured IC50 of the compound CC(=O)O[C@H]1C(=O)[C@@]2(C)[C@H]([C@H](OC(=O)c3ccccc3)[C@]3(O)C[C@H](OC(=O)[C@H](O)[C@@H](NC(=O)c4ccccc4)c4ccccc4)C(C)=C1C3(C)C)[C@]1(OC(C)=O)CO[C@@H]1C[C@@H]2O with Normal Organoid from normal adjacent tissue of ovarian cancer patients.
Return: 2.12

Enquiry: Please tell me the measured IC50 for COc1cccc2c1C(=O)c1c(O)c3c(c(O)c1C2=O)C[C@@](O)(C(=O)CO)C[C@@H]3O[C@H]1C[C@H](N)[C@H](O)[C@H](C)O1 ; system: Normal Organoid from normal adjacent tissue of ovarian cancer patients.
Return: 0.102

====

Test system: Normal Organoid from normal adjacent tissue of ovarian cancer patients
ASSAY_EXPLANATION: PDO drug sensitivity and resistance testing (CellTiter-Glo), ovarian normal adjacent tissue organoids
Format: cell-based
RUN_CONDITIONS: Homo sapiens, 504 h, Ovarian Cancer Sample 2, Normal Organoid, day 21, CTG
OBSERVABLE: pIC50
Hey, just a heads up that pIC50 is the negative log base 10 of the concentration in molar.

Enquiry: Give a short answer stating reported pIC50 for COc1cccc2c1C(=O)c1c(O)c3c(c(O)c1C2=O)C[C@@](O)(C(=O)CO)C[C@@H]3O[C@H]1C[C@H](N)[C@H](O)[C@H](C)O1 .
Return: 2.94

Enquiry: For the compound CC(=O)O[C@H]1C(=O)[C@@]2(C)[C@H]([C@H](OC(=O)c3ccccc3)[C@]3(O)C[C@H](OC(=O)[C@H](O)[C@@H](NC(=O)c4ccccc4)c4ccccc4)C(C)=C1C3(C)C)[C@]1(OC(C)=O)CO[C@@H]1C[C@@H]2O , give its measured pIC50 value.
Return: 4.05

====

Kindly state pIC50 for each of the entries shown.
System: patient-derived primary ovarian cancer organoids (Tumor Organoid)
ASSAY_EXPLANATION: PDO drug sensitivity and resistance testing (CellTiter-Glo), ovarian tumor organoids
Assay type: cell-based, human
RUN_CONDITIONS: Homo sapiens, 336 h, Ovarian Cancer Sample 1, Tumor Organoid, day 14, CTG
In plain terms, pIC50 is the concentration in mol/L turned into minus its base-10 logarithm.

Enquiry: State its pIC50 for this molecule: COc1cccc2c1C(=O)c1c(O)c3c(c(O)c1C2=O)C[C@@](O)(C(=O)CO)C[C@@H]3O[C@H]1C[C@H](N)[C@H](O)[C@H](C)O1
Return: 3.06

Enquiry: Respond only with pIC50 recorded for CC(=O)O[C@H]1C(=O)[C@@]2(C)[C@H]([C@H](OC(=O)c3ccccc3)[C@]3(O)C[C@H](OC(=O)[C@H](O)[C@@H](NC(=O)c4ccccc4)c4ccccc4)C(C)=C1C3(C)C)[C@]1(OC(C)=O)CO[C@@H]1C[C@@H]2O
Return: 4.70

====

Provide the recorded pIC50 for the entries that follow.
Tested on: patient-derived primary ovarian cancer organoids (Tumor Organoid)
ASSAY_EXPLANATION: PDO drug sensitivity and resistance testing (CellTiter-Glo), ovarian tumor organoids
Type: cell-based, human
RUN_CONDITIONS: Homo sapiens, 168 h, Ovarian Cancer Sample 2, Tumor Organoid, day 7, CTG
Conceptually, pIC50 converts a concentration in mol/L into minus its log10.

Enquiry: Using the record for COc1cccc2c1C(=O)c1c(O)c3c(c(O)c1C2=O)C[C@@](O)(C(=O)CO)C[C@@H]3O[C@H]1C[C@H](N)[C@H](O)[C@H](C)O1 , state its measured pIC50.
Return: 2.61

Enquiry: Identify measured pIC50 associated with CC(=O)O[C@H]1C(=O)[C@@]2(C)[C@H]([C@H](OC(=O)c3ccccc3)[C@]3(O)C[C@H](OC(=O)[C@H](O)[C@@H](NC(=O)c4ccccc4)c4ccccc4)C(C)=C1C3(C)C)[C@]1(OC(C)=O)CO[C@@H]1C[C@@H]2O
Return: 3.03

====

Give IC50 for every item shown.
Tested on: patient-derived primary ovarian cancer organoids (Tumor Organoid)
ASSAY_EXPLANATION: PDO drug sensitivity and resistance testing (CellTiter-Glo), ovarian tumor organoids
Assay type: cell-based, human
RUN_CONDITIONS: Homo sapiens, 504 h, Ovarian Cancer Sample 1, Tumor Organoid, day 21, CTG
Number in nM, nothing else.

Enquiry: Please report the measured IC50 for COc1cccc2c1C(=O)c1c(O)c3c(c(O)c1C2=O)C[C@@](O)(C(=O)CO)C[C@@H]3O[C@H]1C[C@H](N)[C@H](O)[C@H](C)O1
Return: 1020

Enquiry: Tell us which IC50 value is on record for CC(=O)O[C@H]1C(=O)[C@@]2(C)[C@H]([C@H](OC(=O)c3ccccc3)[C@]3(O)C[C@H](OC(=O)[C@H](O)[C@@H](NC(=O)c4ccccc4)c4ccccc4)C(C)=C1C3(C)C)[C@]1(OC(C)=O)CO[C@@H]1C[C@@H]2O
Return: 588

====

Tested on: patient-derived breast cancer organoids (Tumor Organoid)
ASSAY_EXPLANATION: PDO drug sensitivity and resistance testing (CellTiter-Glo), breast tumor organoids
Assay type: cell-based, human
RUN_CONDITIONS: Homo sapiens, 168 h, Breast Cancer Sample 1, Tumor Organoid, day 7, CTG
OBSERVABLE: IC50 (µM)
Only the number, expressed in µM, is required.

Enquiry: Determine its reported IC50: COc1cccc2c1C(=O)c1c(O)c3c(c(O)c1C2=O)C[C@@](O)(C(=O)CO)C[C@@H]3O[C@H]1C[C@H](N)[C@H](O)[C@H](C)O1 [Doxorubicin]
Return: 902

Enquiry: Specify measured IC50 for CC(=O)O[C@H]1C(=O)[C@@]2(C)[C@H]([C@H](OC(=O)c3ccccc3)[C@]3(O)C[C@H](OC(=O)[C@H](O)[C@@H](NC(=O)c4ccccc4)c4ccccc4)C(C)=C1C3(C)C)[C@]1(OC(C)=O)CO[C@@H]1C[C@@H]2O [Paclitaxel] .
Return: 83.6
